Data provenance: ChEMBL document CHEMBL3091288

- procedure-details: AUC (infinity) in rat at 10 mg/kg, po by LC-MS/MS analysis
- Assay type: ADME, organism-based
- Parameters: time infinity, dose 10 mg/kg, route oral
- assay-setup: plasma
measure-name: AUC(0-inf)
Include the unit right after the number.

Q: Entry under review: CNS(=O)(=O)[N-]c1cccc(Cc2c(C)c3ccc(Oc4ncccn4)cc3oc2=O)c1F.[Na+] . Reported AUC(0-inf)?
A: 43 µM·h

---

- procedure-details: Oral bioavailability in BALB-nu/nu mouse at 20 mg/kg by LC-MS/MS analysis
- Format: ADME, organism-based
- assay-setup: in vivo
measure-name: bioavailability (%)
Give the value in % but do not write % after it.

Q: Entry under review: CNS(=O)(=O)[N-]c1cccc(Cc2c(C)c3ccc(Oc4ncccn4)cc3oc2=O)c1F.[Na+] . Reported bioavailability?
A: 75
